# testSystem: recombinant hMAO-B (Homo sapiens, UniProt P27338)
# Sequence (P27338 whole entry): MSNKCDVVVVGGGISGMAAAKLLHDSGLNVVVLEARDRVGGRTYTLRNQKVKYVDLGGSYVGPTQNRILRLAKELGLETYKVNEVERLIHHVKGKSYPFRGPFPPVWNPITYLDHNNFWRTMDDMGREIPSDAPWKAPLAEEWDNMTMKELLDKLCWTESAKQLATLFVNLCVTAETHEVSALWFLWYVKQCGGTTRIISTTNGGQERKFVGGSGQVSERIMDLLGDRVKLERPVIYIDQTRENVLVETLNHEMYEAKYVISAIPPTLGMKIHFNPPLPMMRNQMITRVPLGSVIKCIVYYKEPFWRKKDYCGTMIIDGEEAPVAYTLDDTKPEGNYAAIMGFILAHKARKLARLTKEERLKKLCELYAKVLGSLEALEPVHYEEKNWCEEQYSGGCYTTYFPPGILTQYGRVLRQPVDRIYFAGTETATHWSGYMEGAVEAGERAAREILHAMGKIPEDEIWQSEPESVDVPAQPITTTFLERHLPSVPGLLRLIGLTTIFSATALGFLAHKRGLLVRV
# assayText: hMAO-B inhibitory activity (Amplex Red MAO kit)
measuredQuantity: IC50 (µM)

• Cc1coc2cc3oc(=O)ccc3cc12 [FCS005, 3-methyl-7H-furo[3,2-g]chromen-7-one] = 41.6

Reference source for all entries: paper PMC7357371
